system: HCT-116; assay: NCI tumour cell line growth inhibition, 48 h
Active and inactive are the calls of the source. No stated cut-off is given here; in the data, active = GI50 up to about 1.1 µM and inactive = higher.
Respond using exactly one of the listed classes: active, inactive

# example entries with known answers
>  <Molecule>
CC(=O)O[C@H]1C(=O)[C@@]2(C)[C@H]([C@H](OC(=O)c3ccccc3)[C@]3(O)C[C@H](OC(=O)[C@H](O)[C@@H](NC(=O)CC(C)(C)C)c4ccccc4)C(C)=C1C3(C)C)C1(OC(C)=O)CO[C@@H]1C[C@@H]2O (stereo partly drawn)

>  <Answer Label>
active

$$$$
>  <Molecule>
CCOC(=O)c1c(N2CCOCC2)[nH]c(=O)c(C(c2ccc(OC)cc2)c2c(O)c(C(=O)OCC)c(N3CCOCC3)[nH]c2=O)c1O

>  <Answer Label>
inactive

$$$$

Now look at this one.
[Q] Recorded test call requested for COC(=O)C1(Cc2ccc3c(c2)CCC3)Cc2ccccc2C1
[A] inactive

====

Listed here are compounds together with their documented GI50.
test system: HCC 2998; test: NCI tumour cell line growth inhibition, 48 h
Activity calls are given as the source filed them. No stated cut-off is given here; in the data, active = GI50 up to about 1.1 µM and inactive = higher.

[Q] Endpoint output: GI50 of C1=CN2C[n+]3cccc(OCc4ccccc4)c3N=C2C(OCc2ccccc2)=C1 . Value?
[A] 5.83 µM (inactive)

====

system: SF-539; test: NCI tumour cell line growth inhibition, 48 h
The source made the active and inactive calls. Rule as the data show it: active = GI50 up to about 1.1 µM and inactive = higher.
API: response.call in Y (active), N (inactive)

See these solved cases before continuing.
>  <Compound>
COC(=O)C(CCC1CC(OC)N(C(=O)OCc2ccccc2)C1)/N=C/c1ccccc1 (stereo not given)

>  <Tested Target>
SF-539

>  <Answer Label>
N

$$$$
>  <Compound>
O=C(O)c1cc(CCc2cc(O)ccc2O)ccc1O

>  <Tested Target>
SF-539

>  <Answer Label>
N

$$$$
>  <Compound>
NCCNC(=O)CN(CC(=O)O)C1CCCCC1N(CC(=O)O)CC(=O)O (stereo not given)

>  <Tested Target>
SF-539

>  <Answer Label>
N

$$$$

[Q] Record request — test call for SCCCSCCSCCCSCCS
[A] N

[Q] Returns: the outcome recorded for CC1OC(OC2C(OC(=O)[C@@H]3CC(C)(C)C[C@H]4C5=CC[C@@H]6[C@@]7(C)C[C@H](O)[C@H](OC8OC(CO)C(O)C(O)C8O)[C@@](C)(CO)[C@@H]7[C@H](O)C[C@@]6(C)[C@]5(C)CC[C@@]34C)OCC(O)C2O)C(O)C(O)C1O (stereo not given in full) in this assay.
[A] N

[Q] Fill in: this test's call for O=Cc1ccccc1COC(=O)c1cc(C(=O)OCc2ccccc2C=O)c(C(=O)OCc2ccccc2C=O)cc1C(=O)OCc1ccccc1C=O is ___
[A] N

[Q] I would be grateful if you could indicate the recorded call for NC(=S)N/N=C/c1ccc(OC(=O)COc2ccccc2Cl)cn1 .
[A] N

[Q] For CCOC(=O)C12CCC(c3c(C)cccc3C)(O1)C(C(=O)OC)=C2C(=O)OC (stereo not given) , which call appears in the assay record?
[A] N

====

tested on: LXFL 529; assay: NCI tumour cell line growth inhibition, 48 h
The source made the active and inactive calls. No stated cut-off is given here; in the data, active = GI50 up to about 1.1 µM and inactive = higher. Where a SMILES comes first, the peptide text is derived from it. [ ]: non-standard residue; d: D form. The star is where a group is joined. NMeF = CN[CH](Cc1ccccc1)C(=O)O; NMeV = CN[CH](C(=O)O)C(C)C; Boc = CC(C)(C)OC(=O)*; OBn = c1ccc(CO*)cc1
Measurement Kind: GI50

>  <Compound>
CC(C)C(NC(=O)OC(C)(C)C)C(=O)N(C)C(Cc1ccccc1)C(=O)N(C)C(C(=O)N(C)C(C(=O)OCc1ccccc1)C(C)C)C(C)C (centres undefined) (Boc-V[NMeF][NMeV][NMeV]-OBn; configuration not given here)

>  <Tested Target>
LXFL 529

>  <GI50>
7.6 µM (inactive)

$$$$

[Q] Report GI50 for CC(=O)OC1CC2C(C)(C)OC(=O)CC(OC(C)=O)[C@]2(C)C2CCC3(C)C(=CCC3[C@H]3COC(=O)C3)[C@]12C (some centres undefined) tested on LXFL 529.
[A] 51.8 µM (inactive)

[Q] Lab note: need GI50 with LXFL 529 for entry O=c1ncccn1C1OC(CO)C(O)C1O (centres undefined) , please look it up.
[A] > 100 µM (inactive)
